# Tested on: E. faecium
# EXPERIMENT_SUMMARY: microbe, parasite or virus in culture
# Type: cell-based
# CONDITION_SUMMARY: Enterococcus faecium, read-out: MIC value, E.faecium E355, VAN,TEI,LNZ/VanA
ASSAY_READOUT: MIC (µg/mL)
Give bare numbers, in µg/mL.

In: Recorded MIC of CC(=O)N[C@H]1[C@H](O[C@@H]2c3ccc(c(Cl)c3)Oc3cc4cc(c3O)Oc3ccc(cc3Cl)C[C@H]3NC(=O)[C@H](NC(=N)N)c5ccc(O)c(c5)Oc5cc(O)cc(c5)[C@H](NC3=O)C(=O)N[C@H]4C(=O)N[C@H]3C(=O)N[C@@H]2C(=O)N[C@H](C(=O)O)c2cc(O)cc(O)c2-c2cc3ccc2O)O[C@H](CO)[C@@H](O)[C@@H]1O , please.
Out: 0.125
